Would you kindly list cell count for each of these compounds?
# testName: inhibitors of TNFa-induced NFkB p65 translocation, primary screen, imaging, HUVEC, MLSMR starter and 10KST1 sets (AID 438);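 note: compound added about 3h40 before a 20 min TNFalpha stimulation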
# condition: HUVEC TNFa-induced p65 nuclear translocation; measured here: nuclei count (cytotoxicity indicator), at 2.08 µM
Answer as a number with no unit attached.

Ask | Tell me measured cell count for CCC(C(=O)O)n1c(C(F)(F)F)nc2ccccc21 (stereo not given) please.
Reply | 717

Ask | Tell me measured cell count for `CC1(C)CC(=O)C(C(=O)CCCCC(=O)C2C(=O)CC(C)(C)CC2=O)C(=O)C1` please.
Reply | 269

Ask | Tell me measured cell count for Cc1ccc(N2C(=O)CC3(CC4C=CC3C4)C2=O)cc1 (stereo not given) please.
Reply | 637

Ask | Tell me measured cell count for `Cc1csc(SCCn2c(Br)nc3c2c(=O)[nH]c(=O)n3C)n1` please.
Reply | 541

Ask | Tell me measured cell count for `O=C(NCCN1CCOCC1)c1ccc(=O)oc1` please.
Reply | 515

Attribution: PubChem BioAssay
